- protocolNotes: Measurement of logP values according EEC directive 79/831 Annex V.A8 by HPLC on reversed phase columns
- Assay type: physicochemical
- experimentalParameters: reversed phase HPLC columns; method [a]: pH 2.3 with 0.1% phosphoric acid and acetonitrile as eluent; read-out: log p
measureName: chromatographic logP
Keep the answer to the number alone.

Here is how some compounds turned out for chromatographic logP.
* CCCC/C=C/c1nc(CON=C(c2ccccc2)c2nnnn2C)cs1 | 4.56
* Cn1nnnc1C(=NOCc1cccc(CO)n1)c1ccccc1 | 1.76

Please find the next compound below.
## Task What chromatographic logP value was documented for this compound, Cn1nnnc1C(=NOCc1cccc(C=NOC2CCCCC2)n1)c1ccccc1 ?
## Result 4.89
